The values you see were collected from the supplement of paper PMC10883282.

tested on: G401; assay: relative viability vs DMSO control (72 h) (fraction); higher = more viable cells; details: 3.333 µM
relative viability listing for selected compounds.
The reply should be a number, written without any unit.

QUERY: Param item = CC(C)Oc1ccc(-c2nn([C@@H](C)c3oc4ccc(F)cc4c(=O)c3-c3cccc(F)c3)c3ncnc(N)c23)cc1F [Umbralisib] ; retrieve measured relative viability.
RESULT: 1.05

QUERY: I'd like to know its relative viability. The compound in question is CO[C@H]1C[C@@H]2CC[C@@H](C)[C@@](O)(O2)C(=O)C(=O)N2CCCC[C@H]2C(=O)O[C@H]([C@H](C)C[C@@H]2CC[C@@H](OCCO)[C@H](OC)C2)CC(=O)[C@H](C)/C=C(\C)[C@@H](O)[C@@H](OC)C(=O)[C@H](C)C[C@H](C)/C=C/C=C/C=C/1C [Certican]
RESULT: 0.668

QUERY: Fill in: relative viability of Cc1ccc(Nc2nccc(N(C)c3ccc4c(C)n(C)nc4c3)n2)cc1S(N)(=O)=O [Pazopanib] is ___
RESULT: 0.696

QUERY: Given CC(C)NC[C@@H](C(=O)N1CCN(c2ncnc3c2[C@H](C)C[C@H]3O)CC1)c1ccc(Cl)cc1 [Ipatasertib] , state its recorded relative viability.
RESULT: 0.655

QUERY: Item under review: CNC(=O)c1nnc(NC(=O)C2CC2)cc1Nc1cccc(-c2ncn(C)n2)c1OC . Reported relative viability?
RESULT: 0.999

QUERY: Recorded relative viability of CCN(CC)CCNC(=O)c1c(C)[nH]c(/C=C2\C(=O)Nc3ccc(F)cc32)c1C [Sunitinib] , please.
RESULT: 0.628

QUERY: Report relative viability for CN1CC[C@@H](NC(=O)Nc2ccc(C#N)cc2)C[C@@H]1c1nc2ccccc2[nH]1 [Glasdegib] please.
RESULT: 0.949

QUERY: Requested read-out: relative viability. Entry: O=C(Nc1nc2cccc(-c3ccc(CN4CCS(=O)(=O)CC4)cc3)n2n1)C1CC1 [Filgotinib]
RESULT: 1.01

QUERY: Need relative viability of COCCNc1cc(NC(=O)N2CCCc3cc(CN4CCN(C)CC4=O)c(C=O)nc32)ncc1C#N [Roblitinib] , thanks.
RESULT: 0.935

QUERY: Consider the compound shown here: CN1CCN(c2ccc(C(=O)Nc3n[nH]c4ccc(Cc5cc(F)cc(F)c5)cc34)c(NC3CCOCC3)c2)CC1 [Entrectinib] What is its recorded relative viability?
RESULT: 0.651

QUERY: Suppose we examine the compound CCC(=O)N1CC[C@H](Nc2ncnc3c2CN(c2cnc(OC)c(C(F)(F)F)c2)CC3)C1 [Leniolisib] ; what relative viability value has been reported?
RESULT: 0.835

QUERY: Entry O=C1NC(=O)[C@@H](c2cn3c4c(cccc24)CCC3)[C@@H]1c1c[nH]c2ccccc12 [Tivantinib] : reported relative viability = ?
RESULT: 0.534

QUERY: Form field: reported relative viability of Cn1cc(C2=C(c3cn(C4CCN(Cc5ccccn5)CC4)c4ccccc34)C(=O)NC2=O)c2ccccc21 [Enzastaurin]
RESULT: 1.21

###

system: SK-ES-1; test: relative viability vs DMSO control (72 h) (fraction); higher = more viable cells; details: 0.00017 µM
Item-by-item account of relative viability
// return just the number, without any unit appended

Example molecules with recorded relative viability:
INSERT INTO results (molecule, assay_system, experimental_result) VALUES
  ('Cc1cc2c(F)c(Oc3ncnn4cc(OC[C@@H](C)O)c(C)c34)ccc2[nH]1 [Brivanib]', 'SK-ES-1', 1.04),
  ('C[C@]12O[C@H](C[C@]1(O)CO)n1c3ccccc3c3c4c(c5c6ccccc6n2c5c31)CNC4=O [Lestaurtinib]', 'SK-ES-1', 1.1),
  ('COc1cc(CCc2cc(NC(=O)c3ccc(N4CC(C)NC(C)C4)cc3)n[nH]2)cc(OC)c1 (configuration not stated) [AZD-4547]', 'SK-ES-1', 1.02),
  ('CCC(=O)N1CC[C@H](Nc2ncnc3c2CN(c2cnc(OC)c(C(F)(F)F)c2)CC3)C1 [Leniolisib]', 'SK-ES-1', 1.04),
  ('CC[C@@H]1CN(C(=O)NCC(F)(F)F)C[C@@H]1c1cnc2cnc3[nH]ccc3n12 [Upadacitinib]', 'SK-ES-1', 1.02),
  ('CC(C)Oc1ccc(-c2nn([C@@H](C)c3oc4ccc(F)cc4c(=O)c3-c3cccc(F)c3)c3ncnc(N)c23)cc1F [Umbralisib]', 'SK-ES-1', 1.07);

Next item in the queue.
QUERY: Requested field: relative viability. Item: COC(=O)[C@@]1(O)C[C@H]2O[C@]1(C)n1c3ccccc3c3c4c(c5c6ccccc6n2c5c31)C(=O)NC4 [K-252a]
RESULT: 1.06
